EXPERIMENTAL_PROTOCOL: viability loss in pontine glioma line – cell-based, SU-DIPG-XXV, MIPE5.0, CellTiter-Glo, qHTS, dose response (AID 1347065);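 further: cells exposed to compound for 48 hours before ATP readout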
SETTINGS: CellTiter-Glo ATP luminescence
Records with an inconclusive call do not appear. Activity calls are given as the source filed them. Cut-off not given; nearly all actives show AC50 up to about 26 µM.
Possible outcomes: Yes (active), No (inactive)

| MOLECULE | GROUP |
| --- | --- |
| O=C1Cc2cc(C(=O)NC3C[C@H]4CC[C@@H](C3)N4S(=O)(=O)CC3CCN(CCCC(F)(F)F)CC3)c(Cl)cc2N1 (stereo partly drawn) | No |
| O=C(Nc1nc2cccc(-c3ccc(CN4CCS(=O)(=O)CC4)cc3)n2n1)C1CC1 | Yes |
| Nc1nccc(-c2c(-c3ccc(F)cc3)ncn2C2CCN(Cc3ccon3)CC2)n1 | No |
| COCc1c(-c2ccc(NC(=O)Nc3cc(C(F)(F)F)ccc3F)c(F)c2)c2c(N)ncnn2c1CN1CCOCC1 | Yes |
| CN1C(=O)N[C@H](Cc2c[nH]c3c(Cl)cccc23)C1=O | No |
| COc1ccc(CNC(=O)c2cc(-c3cncc(Cl)c3)cnc2-c2ccccn2)nc1OC | No |
| CC(C)(F)C[C@H](N[C@@H](c1ccc(-c2ccc(S(C)(=O)=O)cc2)cc1)C(F)(F)F)C(=O)NC1(C#N)CC1 | No |
| CC(C)N(CCCNC(=O)Nc1ccc(C(C)(C)C)cc1)C[C@H]1O[C@@H](n2ccc3c(N)ncnc32)[C@H](O)[C@@H]1O | No |

* * *

Below, each of the compounds is paired with its reported viability value.
EXPERIMENTAL_PROTOCOL: drug combination growth inhibition, ovarian cancer – cell-based, oncology-focused library, rucaparib conditional, profiling panel (AID 1508598)
SETTINGS: patient-derived ovarian cancer cells, CellTiter-Glo viability, 144 h; at 1.25 µM; OCI-P5x cells; without rucaparib; stronger effect = lower value
TEST_READOUT: viability (%)

| SMILES_RECORD | TEST_READOUT | RESULT_UNIT | VALUE_OBSERVED |
| --- | --- | --- | --- |
| CCCCCCCCc1ccc(CCC(N)(CO)CO)cc1 | viability | % | 50.7 |
| COc1cc(Nc2ncc(F)c(Nc3ccc4c(n3)NC(=O)C(C)(C)O4)n2)cc(OC)c1OC | viability | % | 99.3 |
| Cc1cc(Nc2nc(N[C@@H](C)c3ncc(F)cn3)ncc2Cl)n[nH]1 | viability | % | 86.6 |
| CC(C)c1cc(-c2n[nH]c(=O)n2-c2ccc3c(ccn3C)c2)c(O)cc1O | viability | % | 4.83 |

* * *

EXPERIMENTAL_PROTOCOL: drug combination growth inhibition, ovarian cancer – cell-based, oncology-focused library, rucaparib conditional, profiling panel (AID 1508598)
SETTINGS: patient-derived ovarian cancer cells, CellTiter-Glo viability, 144 h; at 0.00122 µM; OCI-C5x cells; without rucaparib; stronger effect = lower value

| COMPOUND | RESULT_UNIT | viability |
| --- | --- | --- |
| Cn1cnc2c(F)c(Nc3ccc(Br)cc3Cl)c(C(=O)NOCCO)cc21 | % | 92.6 |
| Cc1nnc(C(C)C)n1C1CC2CCC(C1)N2CC[C@H](NC(=O)C1CCC(F)(F)CC1)c1ccccc1 (stereo not given in full) | % | 98.5 |
| COc1ccc(C2=NC(c3ccc(Cl)cc3)C(c3ccc(Cl)cc3)N2C(=O)N2CCNC(=O)C2)c(OC(C)C)c1 (stereo not given) | % | 136 |
| Nc1ccn([C@@H]2O[C@H](CO)[C@@H](O)C2(F)F)c(=O)n1 | % | 93.9 |
| CCC[C@H](Nc1nc(-c2ccc(NC(=O)NCC)c(OC)c2)ncc1C)c1cccnc1 | % | 103 |
| CC1(C)CNc2cc(NC(=O)c3cccnc3NCc3ccncc3)ccc21 | % | 128 |
| C=CC(=O)Nc1cccc(Nc2nc(Nc3ccc(NC4CN(CCF)C4)cc3OC)ncc2C(F)(F)F)c1 | % | 120 |
| O=C(O)c1ccc(O)c2ncccc12 | % | 123 |
| C#CC[C@H](c1nc2cc(Cl)ccc2c(=O)n1Nc1ccccc1)N(CCCN)C(=O)c1cccc(Cl)c1F | % | 102 |
| Nc1nc(Nc2ccc(S(N)(=O)=O)cc2)nn1C(=O)c1c(F)cccc1F | % | 96.5 |

Ref: PubChem BioAssay
